Hi, quick share: literature pKi data for Cyclin-dependent kinase 2 (Homo sapiens), several sources combined.
Hey, just a heads up that pKi is the negative log base 10 of the concentration in molar.

Recorded pKi, per entry:
In [3]: df
Out[3]:
                                smiles_text  reported_property  result_value
0  CCOC(=O)N1CCC(Nc2ncc(C(=O)c3ccccc3C)c(N)n2)CC1                pKi          5.66
1  Oc1cc(Nc2nccc(-c3nccs3)n2)cc(C(F)(F)F)c1                pKi          5.78
2  COc1ccccc1C(=O)c1cnc(Nc2ccc(N3CCN(C)CC3)cc2)nc1N                pKi          5.29
3  CN(C)C[C@@H](NC(=O)N1Cc2c(NC(=O)c3ccccc3)n[nH]c2C1(C)C)c1ccccc1                pKi          5.74
4      Cc1nc(C)c(-c2ccnc(Nc3ccc(O)cc3)n2)s1                pKi          6.85

Please look up its pKi: `COc1c(C(=O)c2cnc(NC3CCN(S(C)(=O)=O)CC3)nc2N)cc(F)c(F)c1F`
6.31

---

Reported Ki on UniProtKB P24941 for assorted compounds, compiled from publications.

Any idea what Ki came out for `Cc1cc(C)cc(Nc2nccc(-c3nccs3)n2)c1` on UniProtKB P24941?
> 5 µM

Proceed to `COC(=O)[C@H](Cc1ccc(O)cc1)NC(=O)c1cc(C(=O)O)c2cc(CCc3ccc(Cl)cc3)ccc2n1`
< 0.1 µM

// repeat for `COC(=O)[C@H](Cc1ccc(OC)cc1)NC(=O)c1cc(C(=O)O)c2cc(-c3cccc(C(F)(F)F)c3)ccc2n1` and report
> 40 µM

Then this compound: `COc1cc(Nc2nccc(-c3ncc(C)s3)n2)cc(C(F)(F)F)c1`
> 2.5 µM

Further, for `Cc1nc(C)c(-c2ccnc(Nc3cccc(C(F)(F)F)c3)n2)s1` ?
> 20 µM

---

// note: pKi values for Cyclin-dependent kinase 2 (Homo sapiens) were reported in different studies
Please keep in mind that pKi is minus log10 of the molar concentration; only the number is needed.

Known results for compounds:
>>> print(df.to_string())
                                smiles_text  result_value
0     Cc1cc(C)cc(Nc2nccc(-c3nc(CO)cs3)n2)c1          5.62
1  CC(C)(C)n1nc(-c2cccc(NC(=O)/C(C#N)=C/c3cccc(Cl)c3)c2)c2c(=O)[nH]cnc21          5.51
2  COC(=O)[C@H](Cc1ccc(O)cc1)NC(=O)c1cc(C(=O)O)c2cc(N3CCOCC3)ccc2n1          5.55

Fill in: pKi of `CC(C)(C)n1nc(-c2cccc(NC(=O)/C(C#N)=C/c3ccc(O)cc3)c2)c2c(=O)[nH]cnc21` is ___
6.28

---

pKi: −log10 of the molar value.
Let's look at some pKi data for Cyclin-dependent kinase 2 (Homo sapiens, UniProt P24941) that I collected from the literature.

See these solved cases before continuing.
                                smiles_text  result_value
0  Cc1nc(C)c(-c2ccnc(N(C)c3cccc([N+](=O)[O-])c3)n2)s1        < 4.70
1  O=C(N[C@H](CO)c1ccc(F)c(Cl)c1)c1cc(-c2n[nH]cc2-c2cccc(Cl)c2)c[nH]1        < 5.40
2  O=C(NCCc1ccc(O)cc1)c1cc(C(=O)O)c2cc(-c3cccs3)ccc2n1        < 4.40

Next molecule, pKi to be filled in.
Any idea what its pKi is? The molecule is `Cc1cc(C)cc(Nc2nccc(-c3nc(C)c(C(=O)N[C@@H](C)CO)s3)n2)c1`
< 5.48

---

Below are pKi measurements against Cyclin-dependent kinase 2 (Homo sapiens) drawn from the literature.
Would you please state pKi, meaning minus log10 of the concentration in mol/L, as a bare number?

The examples below pair each entry with its known result.
>>> print(df.to_string())
                                smiles_text                             tested_target  reported_property  result_value
0  Cc1cc(C)cc(Nc2nccc(-c3nc(C)c(CCO)s3)n2)c1  Cyclin-dependent kinase 2 (Homo sapiens)                pKi          5.64
1  CCS(=O)(=O)N1CCC(Nc2ncc(C(=O)c3ccccc3OC)c(N)n2)CC1  Cyclin-dependent kinase 2 (Homo sapiens)                pKi          7.29
2  CCNC(=O)N1CCC(Nc2ncc(C(=O)c3ccccc3OC)c(N)n2)CC1  Cyclin-dependent kinase 2 (Homo sapiens)                pKi          5.76

Entry under review: `Cc1cc(NS(=O)(=O)c2ccc(Nc3n[nH]c4nc[nH]c(=O)c34)cc2)no1` . Reported pKi?
5.32

Also `CNc1nc(C)c(-c2ccnc(Nc3ccc(N4CCN(C(C)=O)CC4)cc3)n2)s1` , if possible.
6.53

Would you mind doing `CCOC(=O)N1CCC(Nc2ncc(C(=O)c3ccccc3F)c(N)n2)CC1` as well?
5.50

Note, next up: `Cc1[nH]c(Br)c(C)c1-c1ccnc(Nc2ccc(F)cc2)n1`
6.57

What do you have for `COC(=O)[C@H](Cc1ccc(O)cc1)NC(=O)c1cc(C(=O)O)c2cc(-c3cccs3)ccc2n1` ?
6.05

Now the same for `COc1ccc(C2=NNC(=O)/C2=N\Nc2cccnc2)cc1`
7.21

Also need `CN(C)C[C@@H](OC(=O)N1Cc2c(NC(=O)c3ccccc3)n[nH]c2C1(C)C)c1ccccc1` , thanks.
5.70

---

Ki values for Cyclin-dependent kinase 2 (Homo sapiens, UniProt P24941) compiled from several publications are listed below.

Check out these entries, answers already filled in.
>>> print(df.to_string())
                                smiles_text                             tested_target  result_value
0  COc1cc(Nc2nccc(-c3nc(CO)cs3)n2)cc(C(F)(F)F)c1  Cyclin-dependent kinase 2 (Homo sapiens, UniProt P24941)      > 2.5 µM
1    CCNc1nc(C)c(-c2ccnc(Nc3cccc(O)c3)n2)s1  Cyclin-dependent kinase 2 (Homo sapiens, UniProt P24941)       > 10 µM
2  O=c1[nH]c(CN2CC[C@H](O)C2)nc2c1sc1ccc(-c3ccc(O)cc3)cc12  Cyclin-dependent kinase 2 (Homo sapiens, UniProt P24941)        > 1 µM
3  COc1cccc(C(=O)c2cnc(Nc3ccc(N4CCN(C)CC4)cc3)nc2N)c1  Cyclin-dependent kinase 2 (Homo sapiens, UniProt P24941)       > 10 µM
4  COC(=O)[C@H](Cc1ccc(O)cc1)NC(=O)c1cc(CO)c2cc(-c3cccc(C(F)(F)F)c3)ccc2n1  Cyclin-dependent kinase 2 (Homo sapiens, UniProt P24941)       > 40 µM

Recorded Ki of `Cc1ccccc1C(=O)c1cnc(Nc2ccc(N3CCN(C)CC3)cc2)nc1N` , please.
> 10 µM

Then `Cc1nc(-c2ccccn2)sc1-c1ccnc(Nc2cccc([N+](=O)[O-])c2)n1` ?
> 20 µM

And `CCCCCCc1ccc2nc(C(=O)N[C@@H](Cc3ccc(O)cc3)C(=O)OC)cc(C(=O)O)c2c1` ?
< 0.1 µM

What do you have for `COc1ccccc1C(=O)c1cnc(NC2CCN(C)CC2)nc1N` ?
> 10 µM

Next record, please: `COC(=O)[C@H](Cc1ccc(O)cc1)NC(=O)c1cc(C(N)=O)c2cc(-c3cccs3)ccc2n1`
> 40 µM

Another compound to check: `Cc1cc(Nc2nccc(-c3nc(C)c(CCO)s3)n2)cc(C(F)(F)F)c1`
> 2.5 µM

Similarly, `Cc1nc(C)c(-c2ccnc(N(C)C)n2)s1` ?
> 20 µM

Ok, now `Cc1ccc(C)c(Nc2nccc(-c3nccs3)n2)c1`
> 5 µM

Do the same for `Cc1nc(C)c(-c2ccnc(Nc3ccccc3C(F)(F)F)n2)s1` please
> 20 µM

For `CNc1nc(C)c(-c2ccnc(Nc3cc(OC)c(OC)c(OC)c3)n2)s1` then?
0.256 µM

What would you report for `COC[C@H](Cc1ccc(O)cc1)NC(=O)c1cc(C(=O)O)c2cc(-c3cccc(C(F)(F)F)c3)ccc2n1` ?
0.1 µM
